- target: T1, rat MASP-2 D4-6 recombinant protein (rat, UniProt Q9JJS8 298-685)
- T1 construct: Made 'similarly' to the human protein (N-terminal his6 tag)
- T1 sequence (Q9JJS8 other isoform, or with tags, fused parts or gaps limits assumed): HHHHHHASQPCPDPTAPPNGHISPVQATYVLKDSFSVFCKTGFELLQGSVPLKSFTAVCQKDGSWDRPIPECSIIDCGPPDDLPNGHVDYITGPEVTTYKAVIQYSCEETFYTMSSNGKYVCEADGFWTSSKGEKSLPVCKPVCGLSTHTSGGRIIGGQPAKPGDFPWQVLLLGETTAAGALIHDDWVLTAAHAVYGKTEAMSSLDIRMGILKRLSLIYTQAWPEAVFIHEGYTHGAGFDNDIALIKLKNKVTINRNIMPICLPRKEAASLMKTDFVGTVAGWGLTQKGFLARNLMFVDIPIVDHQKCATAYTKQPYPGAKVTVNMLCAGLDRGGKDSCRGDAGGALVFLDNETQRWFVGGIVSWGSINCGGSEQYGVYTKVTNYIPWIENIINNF
- test-summary: ELISA, antigen coated, chimeric IgG titrated, anti-human Fc-HRP
recorded-metric: pEC50
The value called pEC50 is obtained by taking minus log10 of the concentration in mol/L.

GET /values?readout=pEC50&item= chimeric antibody 1B2 (antibody, V domains shown) VH: DVQLQESGPGLVKPSQSLSLTCTVTGYSITSDYAWNWIRQFSGDKLEWMGYISYSGSTSYNPSLKSRISITRDTSKNQFFLHLSSVTTEDTATYFCARYWGDYWGHGTTLTVSS VL: DSVMTQSQKFMSTSVGDRVSVTCKASHNVGTNVAWFQQKPGQSPKGLIYSASYRSSGVPDRFTGSGSGTDFTLTISNVQSEDLAEYFCLQYNSNPLTFGGGTKLEVK
8.84

Next:
GET /values?readout=pEC50&item= chimeric antibody 25L15 (antibody, V domains shown) VH: KVKLVESGGDLVKPGGSLKISCAASGFTFSNYAMSWIRQTPDKRLEWVATVSSGGPYTYYPDSVKGRFTISRDNAENTLYLQMSSLRSDDTAIYYCARQIYSDYDVTYWGQGTLVTVSA VL: QIVLSQSPAILSASPGETVTMTCRVSSSVSYMYWLQQKPGSSPKPWIYATSNLASGVPARFSGSGSGTSYSLTITRVEAEDAATYYCQQWSFRPWTFGGGTKLEIK
10.68
